Documented MIC across a set of molecules
Test system: Candida albicans ATCC 60193
test_protocol: Antifungal activity, broth double microdilution MIC
Type: cell-based
test_context: Candida albicans, ATCC60193, pH 7, read-out: minimal inhibition concentration, Ca

| molecule | MIC (µg/mL) |
| --- | --- |
| CCOC(=O)CNc1ccc(N2CCOCC2)nc1 [Compound 3] | 1000 |
| O=C(CNc1ccc(N2CCOCC2)nc1)N/N=c1\sc(-c2ccc(Cl)cc2)cn1-c1ccccc1 [Compound 10] | 500 |
| O=C(CNc1ccc(N2CCOCC2)nc1)N/N=C/c1ccc(Br)cc1 [Compound 5] | 1000 |
| O=C(CNc1ccc(N2CCOCC2)nc1)N/N=C1\SCC(=O)N1c1ccccc1 [Compound 13] | 500 |
| NNC(=O)CNc1ccc(N2CCOCC2)nc1 [Compound 4] | 500 |
| O=C(CNc1ccc(N2CCOCC2)nc1)NNC(=S)Nc1ccccc1 [Compound 9] | 1000 |
| O=C(CNc1ccc(N2CCOCC2)nc1)N/N=C/C=C/c1ccccc1 [Compound 6] | 500 |
| Sc1nnc(CNc2ccc(N3CCOCC3)nc2)o1 [Compound 7] | 500 |
| S=c1oc(CNc2ccc(N3CCOCC3)nc2)nn1CN1CCN(c2ccccc2)CC1 [Compound 8] | 1000 |
